Please provide measured %Inh for the entries that follow.
- Test system: PAK7;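 note: KINOMEscan kinase panel screen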
- SETTINGS: concentration: 1 μM, replicates: in singlicate; n = 1
Provide only the numeric value, understood in %.

Q) Consider the compound CCn1c(-c2ccccc2)nc2cnccc21 and give its measured %Inh.
A) 0

Q) Now give it for CS(=O)(=O)Cc1ccc(Nc2nccc(-c3c(-c4cccc(NC(=O)C5CCCCC5)c4)nn4ncccc34)n2)cc1 too.
A) 2

Q) Now give it for Nc1nccc(-c2c(-c3ccc(F)cc3)ncn2C2CCN(Cc3ccccc3)CC2)n1 too.
A) 0

Q) Now give it for CCCCc1nn2ncccc2c1-c1ccnc(NC2CC2)n1 too.
A) 0

Q) Now give it for CC[C@@H]1CO[C@H](C(=O)Nc2ccccc2)CN1c1cc(-c2ccc3c(N)n[nH]c3c2)nc(NC)n1 too.
A) 7
